// provenance: paper PMC11982978

# assay.target: T1, Active phosphorylated His6-tagged ERK2 D319N (rat (p-0033 says mouse)), P63086
# T1 chain: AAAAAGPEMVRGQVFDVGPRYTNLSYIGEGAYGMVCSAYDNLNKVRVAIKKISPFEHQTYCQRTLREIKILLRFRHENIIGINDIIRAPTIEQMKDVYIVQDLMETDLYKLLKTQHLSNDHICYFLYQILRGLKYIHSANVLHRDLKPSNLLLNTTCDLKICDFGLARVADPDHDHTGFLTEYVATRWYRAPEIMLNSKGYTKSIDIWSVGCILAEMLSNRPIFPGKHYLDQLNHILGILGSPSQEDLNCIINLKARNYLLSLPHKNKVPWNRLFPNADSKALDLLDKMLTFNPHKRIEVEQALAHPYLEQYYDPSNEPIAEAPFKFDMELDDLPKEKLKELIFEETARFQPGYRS
# reported.conditions: modification not given; phosphorylated (active form; sites not given)
Ends that are not written are not given here.
measured.attribute: IC50 (µM)
Numbers only, in µM.

I have this binder here, ARRKPVLPALTINP (not fully specified (some residues, N-terminus)) [MAP2K2] , and I need its recorded IC50.
23
